Overview of recorded IC50 for various compounds
Study System: Muscarinic acetylcholine receptor M5 (Homo sapiens) (UniProt P08912)
Sequence (P08912 whole entry, looked up): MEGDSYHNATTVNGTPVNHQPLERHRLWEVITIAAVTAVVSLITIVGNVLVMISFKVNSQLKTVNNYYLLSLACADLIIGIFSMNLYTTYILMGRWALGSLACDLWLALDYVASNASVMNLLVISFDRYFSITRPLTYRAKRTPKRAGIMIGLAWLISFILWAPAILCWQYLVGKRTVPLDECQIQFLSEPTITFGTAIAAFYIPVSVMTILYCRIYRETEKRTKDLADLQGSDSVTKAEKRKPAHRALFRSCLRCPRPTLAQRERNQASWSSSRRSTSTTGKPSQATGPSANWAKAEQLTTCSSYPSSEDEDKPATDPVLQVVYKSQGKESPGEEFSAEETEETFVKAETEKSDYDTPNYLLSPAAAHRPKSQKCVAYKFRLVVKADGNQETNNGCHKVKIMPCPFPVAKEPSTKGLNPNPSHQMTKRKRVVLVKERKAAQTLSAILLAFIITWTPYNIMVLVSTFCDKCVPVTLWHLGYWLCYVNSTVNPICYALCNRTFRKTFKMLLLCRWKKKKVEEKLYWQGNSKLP
Test Summary: M5 muscarinic receptor negative allosteric modulators, dose response, cell-based, concentration-response curves, human M5 (AID 743026)
Study Conditions: CHO-K1 hM5, ACh EC80 calcium flux, Fluo-4

Compound: O=C(c1ccc(OC(F)(F)F)cc1)N1CCN2C(=O)c3ccccc3C12c1ccccc1 (stereo unspecified)
IC50: 4.51 µM

Compound: O=C(c1ccc(OC(F)(F)F)cc1)N1CCN2C(=O)c3ccccc3C12c1ccc(Cl)cc1 (stereo unspecified)
IC50: 2.36 µM

Compound: Cc1ccc(C23c4ccccc4C(=O)N2CCN3C(=O)c2ccc(SC(F)(F)F)cc2)cc1 (stereo unspecified)
IC50: 4.04 µM

Compound: O=C(c1ccc(F)c(F)c1)N1CCN2C(=O)c3ccccc3C12c1ccccc1 (stereo unspecified)
IC50: 1.02 µM

Compound: COc1ccc(C23c4ccccc4C(=O)N2CCN3C(=O)c2ccc(OC(F)(F)F)cc2)cc1 (stereo unspecified)
IC50: 6.74 µM

Compound: Cc1ccc(C23c4ccccc4C(=O)N2CCN3C(=O)c2ccc(F)c(F)c2)cc1 (stereo unspecified)
IC50: 2.62 µM

Compound: COc1cccc(C(=O)N2CCN3C(=O)c4ccccc4C23c2ccc(Cl)cc2)c1 (stereo unspecified)
IC50: 6.58 µM

Compound: Cc1ccc(C(=O)N2CCN3C(=O)c4ccccc4C23c2ccc(Cl)cc2)cc1 (stereo unspecified)
IC50: 4.16 µM

Compound: O=C(c1cccc(C(F)(F)F)c1)N1CCN2C(=O)c3ccccc3C12c1ccc(Cl)cc1 (stereo unspecified)
IC50: 4.91 µM

Compound: Cc1ccc(C23c4ccccc4C(=O)N2CCN3C(=O)c2cc(F)cc(F)c2)cc1 (stereo unspecified)
IC50: 2.34 µM

Compound: COc1ccc(C23c4ccccc4C(=O)N2CCN3C(=O)c2ccc(SC(F)(F)F)cc2)cc1 (stereo unspecified)
IC50: 8.06 µM
